targetSystem: MMP-3 (Homo sapiens, UniProt P08254)
Construct: Truncated Prostromelysin-257 was expressed in a soluble form in E.coli; made in house; host or cells: E. coli
Sequence (P08254 100-274 limits assumed): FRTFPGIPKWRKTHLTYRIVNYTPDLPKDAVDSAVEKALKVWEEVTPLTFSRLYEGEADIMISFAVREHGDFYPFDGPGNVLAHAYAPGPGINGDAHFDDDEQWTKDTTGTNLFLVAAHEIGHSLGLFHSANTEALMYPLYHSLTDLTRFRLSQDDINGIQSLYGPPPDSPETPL
assayName: Automated MMP Profiling Assay, MMP-3 fluorogenic
Type: biochemical
statedConditions: 96-well automated, P218
We label by threshold. Values of IC50 strictly beneath 60 nM are condition met. Values of 60 nM and up are condition not met.

NC(=O)c1ccc(COc2ccc(-c3ccc(C(=O)CC(CCCc4ccccc4)C(=O)O)cc3)cc2)cc1 (stereo not drawn) [Example 112]    condition met
CC(C)(C)CC(=O)N1CC[C@H](C(=O)c2ccc(-c3ccc(Cl)cc3)cc2)[C@H]1C(=O)O [Example 171]    condition not met
COc1ccc(C(=O)OC[C@@H]2CC[C@H](C(=O)c3ccc(-c4ccc(Cl)cc4)cc3)[C@H]2C(=O)O)cc1 (relative stereo) [Example 383]    condition met
COCOC[C@@H]1CC[C@H](C(=O)c2ccc(-c3ccc(Cl)cc3)cc2)[C@H]1C(=O)O (relative stereo) [Example 364]    condition met
O=C(O)[C@H]1[C@H](CN2C(=O)c3cc4ccccc4cc3C2=O)CC[C@@H]1C(=O)c1ccc(-c2ccc(Cl)cc2)cc1 (relative stereo) [Example 387]    condition met

Does this compound meet the criterion IC50 < 60 nM? Cc1ccc(C(=O)OC[C@@H]2CC[C@H](C(=O)c3ccc(-c4ccc(Cl)cc4)cc3)[C@H]2C(=O)O)cc1 (relative stereo) [Example 380]
condition met
